# system-under-test: Fuc(a1-2)[GalNAc(a1-3)]Gal(b1-3)GlcNAc(b1-2)Man(a1-3)[Fuc(a1-2)[GalNAc(a1-3)]Gal(b1-3)GlcNAc(b1-2)Man(a1-6)]Man(b1-4)GlcNAc(b1-4)GlcNAc
# protocol-notes: glycan array binding signal (z-score within array); higher = stronger binding
# recorded-conditions: glycan notation: IUPAC condensed, linker removed
The full list was thinned out, with the strongest signals kept by preference.

- binder: "Eosinophil-derived neurotoxin (EDN) (Homo sapiens), P10153 (protein) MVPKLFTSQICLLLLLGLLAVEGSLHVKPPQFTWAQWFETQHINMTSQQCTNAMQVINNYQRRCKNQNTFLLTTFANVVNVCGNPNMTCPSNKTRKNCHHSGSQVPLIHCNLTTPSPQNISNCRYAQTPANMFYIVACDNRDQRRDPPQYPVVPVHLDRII"
  glycan array binding signal (z-score): 0.308
- binder: "SRS2 (Toxoplasma gondii), O15695 (protein) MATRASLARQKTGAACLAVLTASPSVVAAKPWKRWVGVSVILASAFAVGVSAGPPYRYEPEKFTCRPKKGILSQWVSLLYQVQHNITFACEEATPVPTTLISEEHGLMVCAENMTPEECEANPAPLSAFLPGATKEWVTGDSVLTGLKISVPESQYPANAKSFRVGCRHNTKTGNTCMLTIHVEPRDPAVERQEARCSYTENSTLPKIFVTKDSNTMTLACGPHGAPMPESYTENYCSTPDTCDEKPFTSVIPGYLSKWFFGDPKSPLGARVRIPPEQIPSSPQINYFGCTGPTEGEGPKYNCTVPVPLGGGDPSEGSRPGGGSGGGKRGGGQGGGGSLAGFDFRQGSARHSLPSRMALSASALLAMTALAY"
  glycan array binding signal (z-score): -0.13
